System: UACC-62 melanoma
Assay: NCI tumour cell line growth inhibition, 48 h
This section presents compounds with their documented TGI values.

INSERT INTO assay_data (compound, target_entity, reported_result) VALUES
  ('CCOc1ccc(OP2(=O)NC(=O)C=C(C)N2)cc1 (stereo not drawn)', 'UACC-62 melanoma', '> 100 µM');

Query: Which TGI value belongs to "Cc1ccccc1NC(=O)CC(=O)NNCC(=O)Nc1nnc(-c2ccccc2)s1" ?
Result: > 100 µM

Query: Which TGI value belongs to "COC(=O)c1ccc(CCC2=CC(=O)C=CC2=O)cc1" ?
Result: 29.3 µM

* * *

Test system: NCI-H522 lung
Assay: NCI tumour cell line growth inhibition, 48 h
measurement label: TGI (µM)
Field: numeric (µM). Do not append units.

Example entries and their recorded answers appear below.
INSERT INTO measurements (structure_notation, reported_result) VALUES
  ('S=c1[nH]nc(Cn2c3ccc(Br)cc3c3nc4ccccc4nc32)o1', 69.6),
  ('COc1ccc(NC(=S)c2ccc([N+](=O)[O-])o2)cc1', 2.92),
  ('CC1(C)CC2=NO[Se]3=C2C(=NO3)C1', 5.46);

For the next question, use this compound.
Query: Which TGI value belongs to "CCCCCC(=O)OC[n+]1cccc(-c2c(COC(=O)NC(C)C)c(COC(=O)NC(C)C)c3n2CCC3)c1" ?
Result: 25.2

* * *

Tested on: SF-268 CNS
Assay: NCI tumour cell line growth inhibition, 48 h; in the data active = GI50 below about 0.43 µM; inactive = the rest
Assign a class; possible classes are TRUE = active, FALSE = inactive

Below, 3 compounds whose answers are already recorded.
INSERT INTO results (structure_notation, target_entity, label_value) VALUES
  ('O=C(O)CSc1cc(NS(=O)(=O)c2ccc(Br)cc2)c2ccccc2c1O', 'SF-268 CNS', 'FALSE'),
  ('Cc1cccc(Oc2ccc(Nc3ncnc4ccc(NC(=O)CN(C)C)cc34)cc2Cl)c1', 'SF-268 CNS', 'FALSE'),
  ('COc1ccccc1CNCCCN1C(=O)c2ccc3c4c(ccc(c24)C1=O)C(=O)N(CCCNCc1ccccc1OC)C3=O', 'SF-268 CNS', 'TRUE');

Query: Tell me the recorded outcome of this test for "Cn1cc(-c2ccc3c(c2)ncn3-c2cc(NS(=O)(=O)C3CC3)cc(-c3ccc(F)cc3F)c2)cn1" .
Result: FALSE

* * *

This section presents compounds with their documented TGI values.
Tested on: U251 CNS
Assay: NCI tumour cell line growth inhibition, 48 h
Field: numeric (µM). Do not append units.

INSERT INTO assay_data (structure_notation, unit_descriptor, reported_result) VALUES
  ('CN1CCN(C(=O)/C=C/c2ccc([N+](=O)[O-])o2)CC1', 'µM', 55.1),
  ('COc1ccccc1CNCCCN1C(=O)c2ccc3c4c(ccc(c24)C1=O)C(=O)N(CCCNCc1ccccc1OC)C3=O', 'µM', 0.447);

For the next question, use this compound.
Query: Can you look up TGI on U251 CNS for "O=C(O)CSc1cc(NS(=O)(=O)c2ccc(Br)cc2)c2ccccc2c1O" ?
Result: 30.9

* * *

System: SF-295 CNS
Assay: NCI tumour cell line growth inhibition, 48 h
This section presents molecules with their documented TGI values.

Example entries and their recorded answers appear below.
INSERT INTO measurements (molecule, target_entity, reported_result) VALUES
  ('O=c1c2ccccc2nc2n1CCc1c-2[nH]c2ccccc12', 'SF-295 CNS', '27 µM'),
  ('Cc1[nH]c(=O)c2oc3cc4ccccc4cc3c2c1C(=O)O', 'SF-295 CNS', '> 10 µM'),
  ('O=C(Nc1ccc(Cl)cc1Cl)C1C(=O)OC2(CCCCC2)OC1=O', 'SF-295 CNS', '19.4 µM'),
  ('COc1ccc(NC(=S)c2ccc([N+](=O)[O-])o2)cc1', 'SF-295 CNS', '10.6 µM'),
  ('NC(CCC(=O)O)C(=O)NC(Cc1ccc(N(CCCl)CCCl)cc1)C(=O)O (stereo not given)', 'SF-295 CNS', '> 100 µM');

For the next question, use this molecule.
Query: Which TGI value belongs to "OCc1ccc(N2CCc3ccc(F)cc3C2)cc1Cl" ?
Result: 1.96 µM

* * *

Test system: SNB-75 CNS
Test: NCI tumour cell line growth inhibition, 48 h
measurement label: TGI

Example entries and their recorded answers appear below.
INSERT INTO assay_data (molecule, measurement_label, reported_result) VALUES
  ('N#CCc1nc(-c2cc3ccccc3oc2=O)cs1', 'TGI', '99.7 µM'),
  ('CC(=O)NC(CCCNC(=O)OCc1ccccc1)C(=O)NCc1ccccc1 (stereo unspecified)', 'TGI', '> 100 µM'),
  ('COC(=O)/C(=N\N)C(C(=O)C(=O)Nc1cc(Cl)ccc1Cl)c1nc2ccc([N+](=O)[O-])cc2[nH]c1=O (stereo unspecified)', 'TGI', '> 100 µM'),
  ('CN(Cc1cccc2ccsc12)/N=C\c1ccc(Cl)cc1', 'TGI', '> 100 µM'),
  ('CC(=O)Oc1ccc(-c2nnc(-c3ccc(OC(C)=O)cc3)nn2)cc1', 'TGI', '> 100 µM');

Query: Which TGI value belongs to "c1cc(OCCCCCOc2cccc(-c3nc4ccccc4[nH]3)c2)cc(-c2nc3ccccc3[nH]2)c1" ?
Result: > 100 µM

Query: Which TGI value belongs to CCC12C=C(C(=O)OC)N3c4ccccc4C4CCN(CCC1)C2C43 (stereo unspecified) ?
Result: > 100 µM

* * *

Tested on: BT-549 breast
Test: NCI tumour cell line growth inhibition, 48 h
This section presents compounds with their documented TGI values.

Example entries and their recorded answers appear below.
INSERT INTO results (compound, measurement_label, reported_result) VALUES
  ('N#CC1=C(S)N(C2OC(CO)C(O)C(O)C2O)C(c2ccccc2)=CC1c1ccco1 (stereo not given)', 'TGI', '> 100 µM'),
  ('COc1cc2c(cc1OCCN1CCN(CCN3C(=O)c4cccc5cccc(c45)C3=O)CC1)N=C[C@@H]1CCCN1C2=O', 'TGI', '34.9 µM'),
  ('CCCCCC(=O)OC[n+]1cccc(-c2c(COC(=O)NC(C)C)c(COC(=O)NC(C)C)c3n2CCC3)c1', 'TGI', '> 100 µM'),
  ('O=C1NC(=NCc2cccs2)O/C1=C\c1ccc2ncccc2c1', 'TGI', '13.3 µM'),
  ('C(=NC12CC3CC(CC(C3)C1)C2)C1CCCCC1', 'TGI', '> 100 µM');

Query: Which TGI value belongs to "O[C@@H]1[C@H](OC2c3ccccc3-c3ccccc32)[C@H](OCc2ccccc2)[C@@H]2OC[C@H]1O2" ?
Result: > 100 µM

Query: Which TGI value belongs to "N#C[Se]CCN1C(=O)c2ccccc2C1=O" ?
Result: 3.53 µM

Query: Which TGI value belongs to "CC(=O)n1c2ccc(Br)cc2c2nc3ccccc3nc21" ?
Result: > 100 µM

Query: Which TGI value belongs to COC(=O)C(C)NP(=O)(OCc1cccc(Cn2cnc3c(N)ncnc32)c1)Oc1ccccc1 (stereo not given) ?
Result: > 100 µM

Query: Which TGI value belongs to "O=C(NO)c1ccc(CNc2cccc3nc(C4CC4)n(-c4ccccc4)c(=O)c23)cc1" ?
Result: 14.3 µM

* * *

Test system: NCI/ADR-RES ovarian
Test: NCI tumour cell line growth inhibition, 48 h
This section presents compounds with their documented TGI values.

INSERT INTO results (compound, target_entity, measurement_label, reported_result) VALUES
  ('O[C@@H]1[C@H](OC2c3ccccc3-c3ccccc32)[C@H](OCc2ccccc2)[C@@H]2OC[C@H]1O2', 'NCI/ADR-RES ovarian', 'TGI', '> 100 µM');

Query: Which TGI value belongs to O=C(OC1OC2COC(=O)c3cc(O)c(O)c(O)c3-c3c(cc(O)c(O)c3O)C(=O)OC3C2OC(=O)[C@@]24CC(=O)[C@@](O)(OC25C(=O)O[C@H]2[C@@H](O)CO[C@@]25O)C2(O)Oc5c(O)c(O)cc(c5C24)C(=O)OC13)c1cc(O)c(O)c(O)c1 (stereo partly drawn) ?
Result: > 100 µM

Query: Which TGI value belongs to O=C1NC(c2ccccc2Cl)Nc2ccccc21 (stereo not drawn) ?
Result: 27.5 µM

* * *

Test system: HS 578T breast
Assay: NCI tumour cell line growth inhibition, 48 h
Is TGI at least 50 µM? Then Criterion met. If not, Criterion not met.

Below, 2 compounds whose answers are already recorded.
INSERT INTO results (compound, label_value) VALUES
  ('Cc1cnc2[nH]c(-c3cccc4ccccc34)cc(=O)c2c1', 'Criterion met'),
  ('O=C1C[C@@H]2OCC=C3C[N+]4([O-])CC[C@]56c7ccccc7N1[C@H]5[C@H]2[C@H]3C[C@@H]64 (stereo not given in full)', 'Criterion met');

Query: Quick check: does "COc1cc2c(cc1OCCCOc1cc3c(cc1OC)C(=O)N1CCC[C@H]1C(=O)N3)N=C[C@@H]1CCCN1C2=O" have TGI greater than or equal to 50 µM?
Result: Criterion met

Query: Quick check: does "Cc1csc(=Nc2ccccc2)n1CCC(O)(P(=O)(O)O)P(=O)(O)O" have TGI greater than or equal to 50 µM?
Result: Criterion met

Query: Quick check: does "O=C1[C@H](Cc2ccc(O)cc2)N2C(=O)CCN(C(=O)NCc3ccccc3)[C@H]2CN1Cc1cccc2ccccc12" have TGI greater than or equal to 50 µM?
Result: Criterion not met

Query: Quick check: does "CCc1nc(N)nc(N)c1-c1ccc(N2CCOCC2)c(N=[N+]=[N-])c1" have TGI greater than or equal to 50 µM?
Result: Criterion met
